target-or-test-system: purified recombinant linear UB tetramers

{"protein": "His-tagged OTU2 (protein) MEGIIVRRVIPSDNSCLFNAIGYVMDKDKNKAPELRQVIAAAVASNKEKYNEAFLGKLNEEYCAWILNPDKWGGAIELSILADYYGREIAAYDIQTSRCDLYGQTRNYDERVMLIYDGLHYDALALSPFEGAEEDFDMTIYPVGKDRSIGSIEGLALNLVKDQQRKRSYTDTANFTLRCGVCQIGVIGQKEAVEHAQATGHVNFQEYK", "in vitro deubiquitylation activity": "-"}
